Target: recombinant F508del V470 CFTR in Fischer rat thyroid (FRT) cells (Homo sapiens, UniProt P13569, DEL508-508)
Sequence (P13569 with tags, fused parts or gaps DEL508-508): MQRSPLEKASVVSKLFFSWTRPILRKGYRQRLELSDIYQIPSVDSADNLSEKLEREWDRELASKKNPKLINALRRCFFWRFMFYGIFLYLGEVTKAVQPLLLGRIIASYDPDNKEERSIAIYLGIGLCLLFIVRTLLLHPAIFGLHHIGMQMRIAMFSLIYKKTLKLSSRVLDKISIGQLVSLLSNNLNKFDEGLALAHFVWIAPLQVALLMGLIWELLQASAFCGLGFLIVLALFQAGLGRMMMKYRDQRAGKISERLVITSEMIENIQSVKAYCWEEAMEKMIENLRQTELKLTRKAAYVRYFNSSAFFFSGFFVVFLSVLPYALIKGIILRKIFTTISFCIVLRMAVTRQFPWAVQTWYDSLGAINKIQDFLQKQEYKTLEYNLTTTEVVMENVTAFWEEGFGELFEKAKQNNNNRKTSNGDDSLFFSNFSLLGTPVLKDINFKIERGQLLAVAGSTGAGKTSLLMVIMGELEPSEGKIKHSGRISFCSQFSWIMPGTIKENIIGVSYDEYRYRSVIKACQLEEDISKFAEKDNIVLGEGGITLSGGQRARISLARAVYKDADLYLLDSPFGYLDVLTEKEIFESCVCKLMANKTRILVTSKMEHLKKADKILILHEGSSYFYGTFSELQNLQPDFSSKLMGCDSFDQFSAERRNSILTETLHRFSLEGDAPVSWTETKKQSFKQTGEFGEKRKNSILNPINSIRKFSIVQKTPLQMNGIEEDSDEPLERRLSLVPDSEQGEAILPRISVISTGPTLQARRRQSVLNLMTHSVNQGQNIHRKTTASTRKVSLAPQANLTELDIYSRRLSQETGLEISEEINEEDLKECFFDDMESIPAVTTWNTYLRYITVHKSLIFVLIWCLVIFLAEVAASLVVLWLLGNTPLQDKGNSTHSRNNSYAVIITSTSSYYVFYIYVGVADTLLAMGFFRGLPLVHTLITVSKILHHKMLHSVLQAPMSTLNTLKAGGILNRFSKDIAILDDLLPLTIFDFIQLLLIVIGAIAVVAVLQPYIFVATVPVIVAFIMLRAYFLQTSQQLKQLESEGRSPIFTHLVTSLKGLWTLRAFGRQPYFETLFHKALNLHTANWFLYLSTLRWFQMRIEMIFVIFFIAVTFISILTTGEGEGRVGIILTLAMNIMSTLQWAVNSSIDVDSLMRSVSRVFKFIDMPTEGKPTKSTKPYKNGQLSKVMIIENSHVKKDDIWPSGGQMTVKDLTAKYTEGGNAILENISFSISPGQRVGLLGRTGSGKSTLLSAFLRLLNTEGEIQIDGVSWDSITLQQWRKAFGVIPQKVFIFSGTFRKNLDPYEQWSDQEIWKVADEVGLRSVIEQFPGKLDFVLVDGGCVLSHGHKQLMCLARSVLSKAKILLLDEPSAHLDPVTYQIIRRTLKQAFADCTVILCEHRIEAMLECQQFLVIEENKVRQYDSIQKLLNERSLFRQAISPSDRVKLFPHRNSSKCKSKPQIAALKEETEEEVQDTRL
Test: FRT ion flux assay of F508del CFTR potentiation
Details: FRT cells expressing F508del V470 CFTR, forskolin 20 uM, 27° C. pre-incubation
readout-kind: EC50 (nM)
Numbers only, in nM.

# example entries with known answers
compound	units-label	recorded-number
Nc1ncnc2c1c(C1CC1)cn2Cc1cn(-c2ccccc2F)nn1	nM	142
COc1ncncc1-c1cn(C(c2cn(-c3ccccc3F)nn2)C2CC2)c2ncnc(N)c12 (single isomer, unassigned; enantiomer 2) [Example 300]	nM	154
Nc1ncnc2c1c(-c1ccc(Cl)cc1)cn2Cc1cnc(-c2ccccc2)[nH]1	nM	176
CCC(c1cn(-c2cc(F)ccc2F)nn1)n1cc(-c2cnc(C(F)(F)F)nc2)c2c(N)ncnc21 (single isomer, unassigned) [Example 185]	nM	34.7

Take each entry in turn and give its EC50.
1. COc1cc(C#N)cc(-c2cn(Cc3cn(-c4ccccc4F)nn3)c3ncnc(N)c23)c1
2. COc1ncccc1-c1cn(Cc2cn(-c3ccccc3F)nn2)c2ncnc(N)c12
3. CCC(c1cn(-c2ccccc2F)nn1)n1cc(-c2cc(F)cnc2OC)c2c(N)ncnc21 (single isomer, unassigned; enantiomer 2) [Example 140]

A.
1. 186
2. 123
3. 171

---

Target: CFTR in F508del/F508del primary CF hBE cells (Homo sapiens, UniProt P13569, DEL508-508)
Construct: Primary cystic fibrosis human bronchial epithelial (CF hBE) cells were expanded and cultured; endogenous in cells
Sequence (P13569 with tags, fused parts or gaps DEL508-508): as above
Assay: Ussing chamber electrophysiology assay of CFTR potentiation in F508del/F508del CF bronchial epithelial cells (27° C.)
readout-kind: pEC50
Answers are plain numbers, as −log10 of the molar value.

# example entries with known answers
compound	pEC50
CC(c1cnn(-c2ccccc2F)c1)n1c(C#N)c(-c2cnc(C(F)F)nc2)c2c(N)ncnc21 (single isomer, unassigned) [Example 2]	8.06
COc1ccc(-c2cn(C(C)c3cn(-c4ccccc4F)nn3)c3ncnc(N)c23)c(OC)c1 (centres unmarked)	7.26
CCC(c1cn(-c2cccc(F)c2F)nn1)n1cc(-c2cnc(C(F)(F)F)nc2)c2c(N)ncnc21 (single isomer, unassigned) [Example 187]	7.89
CC(c1cn(-c2ccccc2F)nn1)n1cc(-c2ccc(C#N)c(F)c2)c2c(N)ncnc21 (single isomer, unassigned; enantiomer 2) [Example 116]	7.59
CCC(c1cnn(-c2ccc(F)cc2F)c1)n1c(C#N)c(-c2cnc(C(F)(F)F)nc2)c2c(N)ncnc21 (single isomer, unassigned) [Example 21]	9.35

Take each entry in turn and give its pEC50.
1. CC[C@H](c1cn(-c2ccc(F)cc2F)nn1)n1cc(-c2cnc(C(F)(F)F)nc2)c2c(N)ncnc21 (single isomer, unassigned)
2. COc1ncc(-c2cn(C(C)c3cc(-c4ccccc4F)no3)c3ncnc(N)c23)cn1 (single isomer, unassigned; (+)) [Example 184]
3. CCC(c1cn(-c2cccc(F)c2F)nn1)n1cc(-c2cc(F)cnc2OC)c2c(N)ncnc21 (single isomer, unassigned; enantiomer 2) [Example 170]
4. CCC(c1cn(-c2ccccc2F)nn1)n1cc(-c2cnco2)c2c(N)ncnc21 (centres unmarked)
5. CCC(c1cn(-c2ccccc2F)nn1)n1cc(-c2cnc(C(F)(F)F)nc2)c2c(N)ncnc21 (centres unmarked) [Example 224]

A.
1. 6.47
2. 7.49
3. 7.31
4. 7.03
5. 7.72

Take each entry in turn and give its pEC50.
1. CCC(c1cn(-c2ccccc2F)nn1)n1c(C#N)c(-c2ccc(OC(F)F)nc2)c2c(N)ncnc21 (single isomer, unassigned)
2. CC(c1cc(-c2ccccc2F)no1)n1cc(-c2ccc(Cl)cc2)c2c(N)ncnc21 (centres unmarked) [Example 258]

A.
1. 7.52
2. 6.83

---

Biological target: recombinant F508del V470 CFTR in Fischer rat thyroid (FRT) cells (Homo sapiens, UniProt P13569, DEL508-508)
Experiment: FRT ion flux assay of F508del CFTR potentiation
Details: FRT cells expressing F508del V470 CFTR, forskolin 20 uM, 27° C. pre-incubation
Labelling field: enter Satisfied if recorded EC50 is less than 300 nM. Enter Not satisfied if it equals or exceeds that cut-off.

compound	label-value
COc1nc(C(F)(F)F)ncc1-c1cn(Cc2cn(-c3ccccc3F)nn2)c2ncnc(N)c12	Satisfied
COc1ccc(-c2c(C)n(Cc3cn(-c4ccc(F)cc4F)nn3)c3ncnc(N)c23)cn1	Satisfied
COc1nccnc1-c1cn(Cc2cn(-c3ccccc3F)nn2)c2ncnc(N)c12	Satisfied
CCC(c1cnn(-c2ccccc2F)c1)n1cc(-c2cnc(C(F)(F)F)nc2)c2c(N)ncnc21 (single isomer, unassigned; enantiomer 1) [Example 175]	Satisfied
CCC(c1cn(-c2cccc(F)c2F)nn1)n1cc(-c2cc(F)cnc2OC)c2c(N)ncnc21 (single isomer, unassigned; enantiomer 2) [Example 170]	Satisfied

Okay, next one:
Q. Identify whether the compound CCC(c1cn(-c2ccccc2F)nn1)n1cc(-c2cncnc2OC)c2c(N)ncnc21 (stereo not drawn) [Example 244] records EC50 below 300 nM.
A. Satisfied

---

Molecular target: CFTR in F508del/F508del primary CF hBE cells (Homo sapiens, UniProt P13569, DEL508-508)
Construct: Primary cystic fibrosis human bronchial epithelial (CF hBE) cells were expanded and cultured; endogenous in cells; host or cells: primary CF human bronchial epithelial cells, genotype F508del/F508del
Assay: Ussing chamber electrophysiology assay of CFTR potentiation in F508del/F508del CF bronchial epithelial cells (27° C.)
Type: cell-based
readout-kind: log10 EC50 (log10 of the value in nM)
Values below are the log10 of the recorded EC50, with nM as the unit.

molecule	log10 EC50
COc1ncccc1-c1cn(Cc2cnc(-c3ccccc3F)[nH]2)c2ncnc(N)c12	2.07
N#Cc1c(-c2ccc(Cl)cc2)c2c(N)ncnc2n1Cc1cn(-c2ccccc2F)nn1	1.55
CCC(c1cn(-c2ccc(F)c(F)c2)nn1)n1cc(-c2cnc(OC)c(F)c2)c2c(N)ncnc21 (single isomer, unassigned; enantiomer 2) [Example 158]	1.29

Take each entry in turn and give its log10 EC50.
1. CCC(c1cn(-c2cc(F)ccc2F)nn1)n1cc(-c2cnc(C(F)(F)F)nc2)c2c(N)ncnc21 (single isomer, unassigned) [Example 185]
2. CCC(c1cn(-c2ccccc2)nn1)n1cc(-c2cnc(C(F)(F)F)nc2)c2c(N)ncnc21 (single isomer, unassigned; enantiomer 2) [Example 130]
3. CCC(c1cn(-c2ccccc2F)nn1)n1cc(-c2cncnc2OC)c2c(N)ncnc21 (single isomer, unassigned; enantiomer 2) [Example 134]
4. COCC(c1cn(-c2ccccc2F)nn1)n1cc(-c2cccnc2OC)c2c(N)ncnc21 (stereo not shown)

A.
[1.16, 2.27, 1.46, 2.55]

---

Give pEC50 for every item shown.
Target: CFTR in F508del/F508del primary CF hBE cells (Homo sapiens, UniProt P13569, DEL508-508)
Construct: Primary cystic fibrosis human bronchial epithelial (CF hBE) cells were expanded and cultured; endogenous in cells; host or cells: primary CF human bronchial epithelial cells, genotype F508del/F508del
Assay: Ussing chamber electrophysiology assay of CFTR potentiation in F508del/F508del CF bronchial epithelial cells (27° C.)
Type: cell-based
Numbers only, as −log10 of the molar value.

# example entries with known answers
molecule	pEC50
CCC(c1cn(-c2ccc(F)cc2F)nn1)n1cc(-c2cc(F)cnc2OC)c2c(N)ncnc21 (single isomer, unassigned; enantiomer 2) [Example 164]	8.34
CC(c1cn(-c2ccccc2F)nn1)n1cc(-c2ccc(OC3CC3)cc2)c2c(N)ncnc21 (single isomer, unassigned; enantiomer 2) [Example 118]	6.79

Let's switch to this molecule now.
Q. Which pEC50 is reported for this molecule? CCC(c1cn(-c2ccccc2F)nn1)n1cc(-c2cncnc2OC)c2c(N)nc(C)nc21 (single isomer, unassigned; enantiomer 2) [Example 304]
A. 6.87

---

Molecular target: CFTR in F508del/F508del primary CF hBE cells (Homo sapiens, UniProt P13569, DEL508-508)
Construct: Primary cystic fibrosis human bronchial epithelial (CF hBE) cells were expanded and cultured; endogenous in cells
Assay: Ussing chamber electrophysiology assay of CFTR potentiation in F508del/F508del CF bronchial epithelial cells (27° C.)
readout-kind: log10 of EC50 (log10 of the value in nM)
Values below are the log10 of the recorded EC50, with nM as the unit.

molecule	log10 of EC50
COc1ncccc1-c1cn(Cc2cn(-c3ccccc3F)nn2)c2ncnc(N)c12	2.20
CCC(c1cn(-c2ccc(F)cc2F)nn1)n1cc(-c2cnc(OC)c(F)c2)c2c(N)ncnc21 (single isomer, unassigned; enantiomer 2) [Example 166]	0.95
CCC(c1cn(-c2ccccc2F)nn1)n1cc(-c2cncnc2OC)c2c(N)nc(C)nc21 (single isomer, unassigned; (+)) [Example 303]	3.21
Cc1c(-c2ccc(Cl)cc2)c2c(N)ncnc2n1C(C)c1cc(-c2ccccc2F)no1 (stereo not shown)	1.72

Take each entry in turn and give its log10 of EC50.
1. CC(c1cn(-c2ccccc2F)nn1)n1cc(C2CCC2)c2c(N)ncnc21 (single isomer, unassigned) [Example 110]
2. COc1ncccc1-c1cn(Cc2ccn(-c3ccccc3F)n2)c2ncnc(N)c12
3. CCC(c1cn(-c2ccc(F)c(F)c2)nn1)n1cc(-c2cnc(OC)c(F)c2)c2c(N)ncnc21 (single isomer, unassigned; enantiomer 1) [Example 157]

A.
1: 0.79; 2: 2.76; 3: 2.38
